B1: library; numbered along this chain (parent)
chain: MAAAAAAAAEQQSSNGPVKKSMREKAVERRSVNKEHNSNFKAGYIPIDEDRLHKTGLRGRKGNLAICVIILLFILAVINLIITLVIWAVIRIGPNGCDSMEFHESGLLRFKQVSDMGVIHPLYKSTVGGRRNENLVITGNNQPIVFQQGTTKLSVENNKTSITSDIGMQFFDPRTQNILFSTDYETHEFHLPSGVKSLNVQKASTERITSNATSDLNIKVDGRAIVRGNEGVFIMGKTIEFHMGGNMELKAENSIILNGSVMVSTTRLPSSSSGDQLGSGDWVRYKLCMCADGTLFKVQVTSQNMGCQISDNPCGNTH

# Variants of: B1
# assayRemarks: SGCB cell-surface expression functional score (HA stain, bin4 vs bin1, normalised to synonymous) (log10 ratio); higher = more cell-surface SGCB (functional)
Below, each entry is listed alongside its reported SGCB cell-surface expression functional score (log10).
propertyName: SGCB cell-surface expression functional score (log10)

L108E :: -1.58
A4Y :: -0.14
V261K :: -1.55
I78S :: -0.22
S264V :: 0.6
S302V :: 0.35
